Ref: patent US8912200B2

Test system: JAK2 dependent human megakaryoblastic leukemia cell line SET-2
Test: Cell proliferation assay (CellTiter-Glo, 72 hours)
Assay type: cell-based
Settings: Homo sapiens, SET-2 cells
outcomeMeasure: pIC50
Please note pIC50 is a logarithmic value: minus log10 of concentration in mol/L. Answer with that number alone.

// known answers, use as guide
{"lineNotation": "Cc1ccc(Cl)cc1-c1[nH]c(-c2nc(N)ncc2C#Cc2cccnc2)cc1C(N)=O", "pIC50": 6.96}
{"lineNotation": "Cc1ccc(Cl)cc1-c1[nH]c(-c2ccnc(N)n2)c(C#Cc2cc(N3CCN(C)CC3)ccc2F)c1C(N)=O", "pIC50": 6.64}
{"lineNotation": "COc1ccc(NC2CCN(C)CC2)cc1C#Cc1cnc(N)nc1-c1cc(C(N)=O)c(-c2cc(Cl)ccc2C)[nH]1", "pIC50": 6.37}
{"lineNotation": "COc1cc(N2CCN(C)CC2)ccc1C#Cc1c(-c2ccnc(N)n2)[nH]c(-c2cc(Cl)ccc2C)c1C(N)=O", "pIC50": 6.59}
{"lineNotation": "Cc1ccc(Cl)cc1-c1[nH]c(-c2ccnc(N)n2)c(C#Cc2ccc(N)cc2)c1C(N)=O", "pIC50": 6.30}
{"lineNotation": "COc1ccc(N)cc1C#Cc1cnc(N)nc1-c1cc(C(N)=O)c(-c2cc(Cl)ccc2C)[nH]1", "pIC50": 6.47}

Could you now look at the following compound, please?
Requested field: pIC50. Item: "Cc1ccc(Cl)cc1-c1[nH]c(-c2ccnc(N)n2)c(C#Cc2ccc(N3CCC(N4CCN(C)CC4)CC3)cc2)c1C(N)=O"
6.40
